binders and their reported Kd
# Target desc: human ApoC3 (human)
# Sequence (chain, as listed by the source): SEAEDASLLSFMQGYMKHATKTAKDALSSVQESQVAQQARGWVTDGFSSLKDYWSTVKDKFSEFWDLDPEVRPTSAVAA
# Experiment description: SPR pH 7.4

>  <Binder>
mAb3 (antibody, V domains shown) VH: QLVESGGGLVQPGGSLRLSCAASGFTFGTYSMRWVRQAPGKGLEWVSSIHTEGGGTAYRDSVKGRFTISRDNAKNTLYLQMNSLRAEDTAIYYCVIAGYSDWGQGTLVTVSS VL: DIVMTQSPLSLPVTPGESASISCKTSQGLVHSDGKTYFYWFLQKPGQSPQQLIYQVSNRASGVPDRFTGSGSGTDFTLKISRVKAEDAGVYYCAHGTYYPHTFGQGTRLEIK

>  <Kd>
0.11 nM

$$$$
>  <Binder>
mAb11 (antibody, V domains shown) VH: QLVESGGGLVQPGGSLRLSCAASGFTFSTYSMRWVRQVPGKGLEWVSSIHTEGGGTAYRDSVKGRFTISRDNAKNTLYLQMNNLRAEDTAVYYCVIAGYSDWGQGTLVTVSS VL: DIVMTQSPLSLSVTPGEPASISCKTSQGLVHSDGKTYFYWFLQKPGQSPQQLIYQVSNRASGVPDRFSGSGSGTDFTLKISRVEAEDVGVYYCAHGTYYPHTFGQGTRLEIK

>  <Kd>
0.173 nM

$$$$
>  <Binder>
mAb13 (antibody, V domains shown) VH: QLLESGGGLVQPGGSLRLSCAASGFTFSTYSMRWVRQVPGKGLEWVSSIHTEGGGTAYRDSVKGRFTISRDNSKNTLYLQMNSLRAEDTAVYYCVIAGYSDWGQGTLVTVSS VL: DIVMTQSPLSLPVTPGEPASISCKTSQGLVHSDGKTYFYWYLQKPGQSPQLLIYQVSNRASGVPDRFSGSGSGTDFTLKISRVEAEDVGVYYCAHGTYYPHTFGQGTRLEIK

>  <Kd>
4.19 nM

$$$$
